Every entry's value here was drawn from paper PMC8773213.

IC50 reference
Tested on: BJ-SV40T (SV40T-transformed BJ-hTERT cells)
Assay: Resazurin cell viability assay, BJ-SV40T
Type: cell-based
Settings: Homo sapiens, 72 h, read-out: IC50 (Mean ± SEM, µM), BJ-SV40T

# molecule, subjectOfTest, IC50 (µM)
rows = [
    ("Cc1ccc(S(=O)(=O)N2CC2(C)CO[C@@H]2O[C@@H]3CO[C@H](c4ccccc4)O[C@@H]3[C@H](OCc3ccccc3)[C@H]2OCc2ccccc2)cc1 (some centres unmarked)", "BJ-SV40T (SV40T-transformed BJ-hTERT cells)", 143),
    ("O=c1[nH]cc(F)c(=O)[nH]1 [5-FU, 5-fluorouracil, reference compound]", "BJ-SV40T (SV40T-transformed BJ-hTERT cells)", 5.4),
]

###

Tested on: UV4 cells (mutated in ERCC1, NER deficient)
Assay: MTT cell viability assay, UV4 cells
Format: cell-based, Chinese hamster
Settings: Cricetulus griseus, UV4, 24 h exposure, then 48 h in drug-free medium, read-out: IC50 (means ± SEM), UV4 cells
measure: IC50 (µM)

# molecule, endpointValue
records = [
    ("Cc1ccc(S(=O)(=O)N2CC2(C)CO[C@@H]2O[C@@H]3CO[C@H](c4ccccc4)O[C@@H]3[C@H](OCc3ccccc3)[C@H]2OCc2ccccc2)cc1 (stereo partly shown)", 58.6),
]

###

System: PC3 (Human prostate cancer cells)
Assay: Resazurin cell viability assay, PC3
Format: cell-based
Conditions: 72 h, read-out: IC50 (Mean ± SEM, µM), PC3
Quick list: IC50 per entry.

# compound, IC50 [µM]
measured = [
    ("Cc1ccc(S(=O)(=O)N2CC2(C)CO[C@@H]2O[C@@H]3CO[C@H](c4ccccc4)O[C@@H]3[C@H](OCc3ccccc3)[C@H]2OCc2ccccc2)cc1 (some centres unmarked) [AzGalp]", 401),
    ("O=c1[nH]cc(F)c(=O)[nH]1 [5-FU, 5-fluorouracil, reference compound]", 1.5),
]
